# assayedTarget: IL-4 (Homo sapiens)
# Sequence: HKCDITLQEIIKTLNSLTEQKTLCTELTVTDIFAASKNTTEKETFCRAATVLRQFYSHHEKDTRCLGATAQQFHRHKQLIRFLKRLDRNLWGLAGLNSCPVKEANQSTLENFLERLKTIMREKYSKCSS
# assaySummary: filter
# conditionDetails: 2'-F all C and U; round 17 pool
readoutKind: pKd
The meaning of pKd here: minus log10 of the concentration in molar units.

Query: Give the measured pKd of GGGAGACAAGAAUAAACGCUCAANNNNNNNNNNNNNNNNNNNNNNNNNNNNNNNNNNNNNNNNUUCGACAGGAGGCUCACAACAGGC [IL-4 round 17 pool 2'F] .
Reply: 7.52

###

# assayedTarget: IFN-gamma (Homo sapiens)
# Sequence: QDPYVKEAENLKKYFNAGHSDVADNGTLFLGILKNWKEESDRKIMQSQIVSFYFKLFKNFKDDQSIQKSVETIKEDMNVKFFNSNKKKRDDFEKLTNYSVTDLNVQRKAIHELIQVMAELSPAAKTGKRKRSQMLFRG
# assaySummary: filter
# conditionDetails: 2'-F all C, 2'-NH2 all U; random pool
pKd: −log10 of the molar value.
readoutKind: pKd

Query: # get_value(readout= pKd, system= IFN-gamma (Homo sapiens)) for GGGAGGACGAUGCGGNNNNNNNNNNNNNNNNNNNNNNNNNNNNNNNNNNNNNNNNCAGACGACUCGCCCGA [40N7 random pool 2'F/NH2]
Reply: < 6.15

###

# assayedTarget: TNF-alpha (Homo sapiens) (UniProt P01375)
# Sequence (P01375 77-233): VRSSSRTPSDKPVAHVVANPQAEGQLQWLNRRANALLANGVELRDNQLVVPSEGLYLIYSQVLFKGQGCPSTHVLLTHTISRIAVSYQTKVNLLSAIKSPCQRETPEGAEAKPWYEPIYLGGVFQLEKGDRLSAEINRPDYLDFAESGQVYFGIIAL
# assaySummary: filter
# conditionDetails: C-SELEX final pool
readoutKind: Kd (nM)
Give the quantity in nM, number only.

Query: Kindly state the measured Kd obtained for GGGAGCUCAGAAUAAACGCUCAANNNNNNNNNNNNNNNNNNNNNNNNNNNNNNUUCGACAUGAGGCCCGGAUCCGGC [TNF round 6 C-SELEX pool] with TNF-alpha (Homo sapiens) (UniProt P01375).
Reply: 400

###

# assayedTarget: IL-4 (Homo sapiens) (UniProt P05112)
# Sequence: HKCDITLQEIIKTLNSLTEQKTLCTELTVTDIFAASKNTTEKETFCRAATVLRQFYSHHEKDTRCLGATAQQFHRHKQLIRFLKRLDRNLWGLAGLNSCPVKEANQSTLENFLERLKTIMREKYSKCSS
# assaySummary: filter
# conditionDetails: 2'-NH2 all C and U; random pool
readoutKind: Kd

Query: Query (sequence): GGGAGACAAGAAUAAACGCUCAANNNNNNNNNNNNNNNNNNNNNNNNNNNNNNNNNNNNNNNNUUCGACAGGAGGCUCACAACAGGC [40N8 random pool 2'NH2] ; field requested: Kd
Reply: > 20 µM

###

# assayedTarget: IFN-gamma (Homo sapiens)
# Sequence: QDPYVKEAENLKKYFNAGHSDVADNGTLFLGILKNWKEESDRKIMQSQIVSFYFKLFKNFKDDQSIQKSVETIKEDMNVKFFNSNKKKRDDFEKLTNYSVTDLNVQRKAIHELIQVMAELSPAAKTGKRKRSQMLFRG
# assaySummary: filter
# conditionDetails: 2'-NH2 all C and U; round 17 pool
readoutKind: Kd (nM)
// return numeric value only (unit: nM, not printed)

Query: Hi! What's the reported Kd for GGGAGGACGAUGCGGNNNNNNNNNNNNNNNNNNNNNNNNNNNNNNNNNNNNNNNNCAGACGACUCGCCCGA [IFN-gamma round 17 pool 2'NH2] on IFN-gamma (Homo sapiens)?
Reply: 20

###

# assayedTarget: IL-4 (Homo sapiens) (UniProt P05112)
# Sequence: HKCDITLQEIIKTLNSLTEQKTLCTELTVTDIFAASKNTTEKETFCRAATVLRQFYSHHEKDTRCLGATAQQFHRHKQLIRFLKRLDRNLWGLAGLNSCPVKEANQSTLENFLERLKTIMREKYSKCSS
# assaySummary: filter
# conditionDetails: 2'-NH2 all C and U; round 17 pool, high filter background; earlier round about 100 nM
readoutKind: Kd (nM)
Note: unit nM is implicit; provide only the numeric part.

Query: Consider the sequence shown here: GGGAGACAAGAAUAAACGCUCAANNNNNNNNNNNNNNNNNNNNNNNNNNNNNNNNNNNNNNNNUUCGACAGGAGGCUCACAACAGGC [IL-4 round 17 pool 2'NH2] What is its recorded Kd?
Reply: 1000

###

# assayedTarget: IFN-gamma (Homo sapiens)
# Sequence: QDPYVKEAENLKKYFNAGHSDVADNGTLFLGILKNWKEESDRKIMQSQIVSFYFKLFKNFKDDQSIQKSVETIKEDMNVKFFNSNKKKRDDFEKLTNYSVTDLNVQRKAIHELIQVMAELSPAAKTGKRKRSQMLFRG
# assaySummary: filter
# conditionDetails: 2'-NH2 all C and U; random pool
pKd: −log10 of the molar value.
readoutKind: pKd

Query: Would you mind telling me what pKd value was observed for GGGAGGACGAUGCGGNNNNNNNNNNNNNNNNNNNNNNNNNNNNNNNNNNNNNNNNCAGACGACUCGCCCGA [40N7 random pool 2'NH2] ?
Reply: < 6.15

###

# assayedTarget: IFN-gamma (Mus musculus) (UniProt P01580)
# Sequence: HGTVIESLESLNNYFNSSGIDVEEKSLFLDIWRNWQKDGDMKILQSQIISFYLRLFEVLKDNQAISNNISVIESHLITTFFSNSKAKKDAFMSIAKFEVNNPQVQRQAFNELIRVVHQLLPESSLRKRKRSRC
# assaySummary: filter
# conditionDetails: 2'-F all C and U; mouse protein
readoutKind: Kd

Query: // map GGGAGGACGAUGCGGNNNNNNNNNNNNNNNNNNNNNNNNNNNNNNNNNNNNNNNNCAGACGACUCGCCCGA [IFN-gamma round 17 pool 2'F] to recorded Kd (system: IFN-gamma (Mus musculus) (UniProt P01580))
Reply: 0.41 µM

###

# assayedTarget: IFN-gamma (Mus musculus) (UniProt P01580)
# Sequence: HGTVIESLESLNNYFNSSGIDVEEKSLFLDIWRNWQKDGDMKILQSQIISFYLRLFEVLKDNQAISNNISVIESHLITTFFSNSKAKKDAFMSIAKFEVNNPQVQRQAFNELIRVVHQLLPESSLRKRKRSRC
# assaySummary: filter
# conditionDetails: 2'-NH2 all C and U; mouse protein
readoutKind: Kd (nM)
Provide only the numeric value, understood in nM.

Query: # get_value(readout= Kd, system= IFN-gamma (Mus musculus) (UniProt P01580)) for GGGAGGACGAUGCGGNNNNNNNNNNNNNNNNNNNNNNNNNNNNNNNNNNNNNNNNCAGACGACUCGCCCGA [IFN-gamma round 17 pool 2'NH2]
Reply: 85

###

# assayedTarget: TNF-beta (Homo sapiens)
# Sequence: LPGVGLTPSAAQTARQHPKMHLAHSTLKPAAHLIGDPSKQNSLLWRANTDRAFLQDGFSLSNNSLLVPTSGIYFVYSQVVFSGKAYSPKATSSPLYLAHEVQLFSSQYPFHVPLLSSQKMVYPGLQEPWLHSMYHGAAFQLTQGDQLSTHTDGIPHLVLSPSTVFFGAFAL
# assaySummary: filter
# conditionDetails: specificity control
readoutKind: Kd

Query: Find the measured Kd: item GGGAGCUCAGAAUAAACGCUCAANNNNNNNNNNNNNNNNNNNNNNNNNNNNNNUUCGACAUGAGGCCCGGAUCCGGC [TNF round 23 A-SELEX pool] , target or system TNF-beta (Homo sapiens).
Reply: > 1 mM

###

# assayedTarget: IFN-gamma (Homo sapiens) (UniProt P01579)
# Sequence: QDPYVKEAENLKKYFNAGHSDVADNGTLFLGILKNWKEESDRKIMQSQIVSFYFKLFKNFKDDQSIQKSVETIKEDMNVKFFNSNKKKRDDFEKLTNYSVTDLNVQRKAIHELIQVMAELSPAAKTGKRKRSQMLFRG
# assaySummary: filter
# conditionDetails: 2'-F all C, 2'-NH2 all U; round 17 pool
readoutKind: Kd

Query: Could you share which Kd value was measured for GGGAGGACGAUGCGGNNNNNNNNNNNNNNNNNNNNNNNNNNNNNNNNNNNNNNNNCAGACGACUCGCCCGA [IFN-gamma round 17 pool 2'F/NH2] ?
Reply: 115 nM

###

# assayedTarget: IL-4 (Homo sapiens)
# Sequence: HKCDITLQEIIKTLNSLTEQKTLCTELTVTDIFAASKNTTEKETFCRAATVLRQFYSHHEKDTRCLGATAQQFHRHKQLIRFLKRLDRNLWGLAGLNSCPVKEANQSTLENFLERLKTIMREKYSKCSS
# assaySummary: filter
# conditionDetails: 2'-F all C and U; random pool
pKd: −log10 of the molar value.
readoutKind: pKd

Query: Fill in: pKd of GGGAGACAAGAAUAAACGCUCAANNNNNNNNNNNNNNNNNNNNNNNNNNNNNNNNNNNNNNNNUUCGACAGGAGGCUCACAACAGGC [40N8 random pool 2'F] is ___
Reply: < 4.70

###

# assayedTarget: TNF-alpha (Homo sapiens) (UniProt P01375)
# assaySummary: filter
# conditionDetails: estimated; flat curves up to 10 uM protein
readoutKind: Kd

Query: Sample GGGAGCUCAGAAUAAACGCUCAANNNNNNNNNNNNNNNNNNNNNNNNNNNNNNUUCGACAUGAGGCCCGGAUCCGGC [TNF random RNA] — what was its Kd?
Reply: > 1000 µM
